measured on: soluble human BACE1 catalytic domain (Homo sapiens (Human))
Sequence (P56817 75-416): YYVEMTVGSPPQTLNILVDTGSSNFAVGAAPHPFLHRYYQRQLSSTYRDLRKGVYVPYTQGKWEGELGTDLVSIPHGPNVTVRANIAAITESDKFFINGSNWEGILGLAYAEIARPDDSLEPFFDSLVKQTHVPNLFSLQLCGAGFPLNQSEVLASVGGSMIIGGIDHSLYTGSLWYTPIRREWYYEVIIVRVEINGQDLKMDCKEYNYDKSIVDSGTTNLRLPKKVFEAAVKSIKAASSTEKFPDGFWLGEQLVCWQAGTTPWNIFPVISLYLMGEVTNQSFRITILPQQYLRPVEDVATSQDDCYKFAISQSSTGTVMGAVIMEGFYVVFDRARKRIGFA

compound	measured on	Ki
CCN=S1(=O)C[C@@](C)(c2cc(NC(=O)c3ccc(Cl)cn3)ccc2F)NC(=N)N1C (stereo partly shown)	soluble human BACE1 catalytic domain (Homo sapiens (Human))	8 nM

* * *

measured on: purified human autoBACE-2 (Homo sapiens (Human))
Sequence (Q9Y5Z0 63-473 limits assumed): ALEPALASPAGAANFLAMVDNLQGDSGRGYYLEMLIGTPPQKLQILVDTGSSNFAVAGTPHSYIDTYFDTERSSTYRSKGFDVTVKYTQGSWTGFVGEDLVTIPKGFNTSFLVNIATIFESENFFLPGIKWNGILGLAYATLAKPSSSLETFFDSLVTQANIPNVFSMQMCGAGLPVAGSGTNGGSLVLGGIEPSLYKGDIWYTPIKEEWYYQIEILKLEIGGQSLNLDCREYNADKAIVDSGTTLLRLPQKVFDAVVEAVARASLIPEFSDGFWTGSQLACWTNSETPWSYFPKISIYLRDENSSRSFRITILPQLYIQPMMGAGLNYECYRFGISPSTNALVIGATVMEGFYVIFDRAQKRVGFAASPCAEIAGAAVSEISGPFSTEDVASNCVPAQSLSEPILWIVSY
pKi: −log10 of the molar value.
readout name: pKi

compound	measurement
CCN=S1(=O)C[C@@](C)(c2cc(NC(=O)c3ccc(Cl)cn3)ccc2F)NC(=N)N1C (stereo partly shown)	8.52
